- target under test: recombinant human LXRβ-LBD-GST (Homo sapiens)
- Construct: The LBD of LXRα or LXRβ was amplified by PCR and sub-cloned into the prokaryotic expression vector pGEX-4T-1; made in house; host or cells: E. coli
- Sequence (P55055 222-460 limits assumed): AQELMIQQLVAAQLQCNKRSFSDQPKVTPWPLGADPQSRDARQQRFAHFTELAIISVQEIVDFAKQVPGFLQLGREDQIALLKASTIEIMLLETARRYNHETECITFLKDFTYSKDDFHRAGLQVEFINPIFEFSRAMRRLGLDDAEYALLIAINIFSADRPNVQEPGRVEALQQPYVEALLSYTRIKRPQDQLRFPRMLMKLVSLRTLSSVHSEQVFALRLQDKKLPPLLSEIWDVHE
- measurement description: Radioligand competition binding scintillation proximity assay (SpA), LXRβ
- condition info: read-out: LXRβ pKi (converted)
# if measured Ki < 20 nM: class 1  # else: class 0

O=C(Nc1ccc(CC2CCN(Cc3ccc(C(O)(C(F)(F)F)C(F)(F)F)cc3)CC2)cc1F)N[C@H]1CCOC1 [Example 12F]	class 1
O=C(Nc1ccc(CC2CCN(Cc3ccc(C(O)(C(F)(F)F)C(F)(F)F)cc3)CC2)cc1F)NC1COC1 [Example 12AE]	class 0
O=C(NCC(O)C(F)(F)F)Nc1ccc(CC2CCN(Cc3ccc(C(O)(C(F)(F)F)C(F)(F)F)cc3)CC2)cc1F (stereo not shown) [Example 12I]	class 1
CC(C)(O)CNC(=O)Nc1cc(F)c(CC2CCN(Cc3ccc(C(O)(C(F)(F)F)C(F)(F)F)cc3)CC2)cc1F	class 0
Cc1cc(NC(=O)Nc2ccc(CC3CCN(Cc4ccc(C(O)(C(F)(F)F)C(F)(F)F)cc4)CC3)cc2F)no1 [Example 12E]	class 1
CC(O)(CNC(=O)Nc1cc(F)c(CC2CCN(Cc3ccc(C(O)(C(F)(F)F)C(F)(F)F)cc3)CC2)cc1F)C(F)(F)F (stereo not shown) [Example 16B]	class 1
CC(O)(CNC(=O)Nc1ccc(CC2CCN(Cc3ccc(C(O)(C(F)(F)F)C(F)(F)F)cc3)CC2)cc1F)C(F)(F)F (stereo not shown) [Example 12AA]	class 1

====

- target under test: recombinant human LXRβ-LBD-GST (Homo sapiens, UniProt P55055)
- Construct: The LBD of LXRα or LXRβ was amplified by PCR and sub-cloned into the prokaryotic expression vector pGEX-4T-1; made in house; host or cells: E. coli
- measurement description: Radioligand competition binding scintillation proximity assay (SpA), LXRβ
observed property: Ki

O=C(Nc1ccc(OC2CCN(Cc3ccc(C(O)(C(F)(F)F)C(F)(F)F)cc3)CC2)cc1)Nc1ccnnc1 [Example 1F]	5.89 nM

====

- target under test: recombinant human LXRβ-LBD-GST (Homo sapiens)
- Construct: The LBD of LXRα or LXRβ was amplified by PCR and sub-cloned into the prokaryotic expression vector pGEX-4T-1; made in house; host or cells: E. coli
- measurement description: Radioligand competition binding scintillation proximity assay (SpA), LXRβ
- condition info: read-out: LXRβ pKi (converted)
- Description: Radioligand Competition Binding Scintillation Proximity Assay (SpA) Using Recombinant Human LXRα or LXRβ Protein […] Human LXRα and LXRβ were expressed as GST-fusion proteins in E. coli. […]
Recorded Ki for the following molecules
observed property: Ki (nM)

O=C(Nc1ccncc1)Nc1ccc(OC2CCN(Cc3ccc(C(O)(C(F)(F)F)C(F)(F)F)cc3)CC2)cc1	2.04
O=C(Nc1ccncc1)Nc1ccc(CC2CCN(Cc3ccc(C(O)(C(F)(F)F)C(F)(F)F)cc3)CC2)cc1F	5.5
CC(C)(O)CNC(=O)Nc1ccc(OC2CCN(Cc3ccc(C(O)(C(F)(F)F)C(F)(F)F)cc3)CC2)cc1	11.5
O=C(Nc1ccncc1)Nc1ccc(CC2CCN(Cc3ccc(C(O)(C(F)(F)F)C(F)(F)F)cc3)CC2)cc1	7.94

====

Recorded Ki for the following molecules
- target under test: recombinant human LXRβ-LBD-GST (Homo sapiens)
- Construct: The LBD of LXRα or LXRβ was amplified by PCR and sub-cloned into the prokaryotic expression vector pGEX-4T-1; made in house; host or cells: E. coli
- measurement description: Radioligand competition binding scintillation proximity assay (SpA), LXRβ
- condition info: read-out: LXRβ pKi (converted)
- Text: Radioligand Competition Binding Scintillation Proximity Assay (SpA) Using Recombinant Human LXRα or LXRβ Protein […] Human LXRα and LXRβ were expressed as GST-fusion proteins in E. coli. […]
observed property: Ki

O=C(Nc1ccc(OC2CCN(Cc3ccc(C(O)(C(F)(F)F)C(F)(F)F)cc3)CC2)cc1)Nc1ccncc1F [Example 2C]	2 nM
O=C(Nc1ccc(CC2CCN(Cc3ccc(C(O)(C(F)(F)F)C(F)(F)F)cc3)CC2)cc1)NC1COC1 [Example 6P]	9.12 nM
CC(C)(O)CNC(=O)Nc1ccc(CC2CCN(Cc3ccc(C(O)(C(F)(F)F)C(F)(F)F)cc3)CC2)cc1F [Example 12AC]	17 nM
O=C(Nc1ccc(CC2CCN(Cc3ccc(C(O)(C(F)(F)F)C(F)(F)F)cc3)CC2)cc1)Nc1ccncc1F [Example 6S]	7.41 nM

====

- target under test: recombinant human LXRβ-LBD-GST (Homo sapiens, UniProt P55055)
- Construct: The LBD of LXRα or LXRβ was amplified by PCR and sub-cloned into the prokaryotic expression vector pGEX-4T-1; made in house; host or cells: E. coli
- Sequence (P55055 222-460 limits assumed): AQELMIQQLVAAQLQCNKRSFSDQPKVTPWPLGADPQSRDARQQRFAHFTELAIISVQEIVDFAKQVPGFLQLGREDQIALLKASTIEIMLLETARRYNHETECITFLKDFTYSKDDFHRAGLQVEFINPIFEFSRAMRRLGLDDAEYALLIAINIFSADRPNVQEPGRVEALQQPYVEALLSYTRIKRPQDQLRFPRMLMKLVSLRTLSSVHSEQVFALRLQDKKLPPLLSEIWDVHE
- measurement description: Radioligand competition binding scintillation proximity assay (SpA), LXRβ
- condition info: read-out: LXRβ pKi (converted)
# if measured Ki < 10 nM: t  # else: f

O=C(Nc1ccc(CC2CCN(Cc3ccc(C(O)(C(F)(F)F)C(F)(F)F)cc3)CC2)cc1F)NC1CCOCC1 [Example 12AG]	f
O=C(Nc1ccc(OC2CCN(Cc3ccc(C(O)(C(F)(F)F)C(F)(F)F)cc3)CC2)cc1)Nc1ccncn1	t
O=C(Nc1ccc(CC2CCN(Cc3ccc(C(O)(C(F)(F)F)C(F)(F)F)cc3)CC2)cc1)Nc1ccncn1	t
O=C(Nc1cnoc1)Nc1ccc(CC2CCN(Cc3ccc(C(O)(C(F)(F)F)C(F)(F)F)cc3)CC2)cc1F [Example 12D]	t
CC(C)(O)CNC(=O)Nc1ccc(CC2CCN(Cc3ccc(C(O)(C(F)(F)F)C(F)(F)F)cc3)CC2)cc1Cl	t
